- Target Under Test: ATP-dependent translocase ABCB1 (Homo sapiens)
- Assay Comment: Reversal of Pgp-mediated DOX resistance in human SW620/AD300 cells assessed as potentiation of DOX-induced cytotoxicity by measuring inhibition of cell proliferation at 1 uM incubated for 48 hrs by SRB assay (reference value: 5.3 +/- 3 %)
- Type: cell-based
Quantity Name: inhibition at 1 µM (%)
Write the number in % without appending the unit.

Q) Item under review: COc1ccc2c(C)c(CC(=O)Nc3ccc(CCN4CCc5cc(OC)c(OC)cc5C4)cc3)c(=O)oc2c1 . Reported inhibition at 1 µM?
A) 50.5

Q) Item under review: COc1cc2c(cc1OC)CN(C(=O)/C=C(\C)c1c(-c3ccccc3)n(C)c3ncccc13)CC2 . Reported inhibition at 1 µM?
A) 44

Q) Item under review: COc1cc2c(cc1OC)CN(CCc1ccc(NC(=O)/C=C/c3ccc(Oc4ccc(-c5ccccn5)c(F)c4)nc3)cc1)CC2 . Reported inhibition at 1 µM?
A) 49.8

Q) Item under review: Cn1c(-c2ccccc2)c(/C=C/C(=O)NN2C(=O)c3ccccc3C2=O)c2cccnc21 . Reported inhibition at 1 µM?
A) 18.9

###

- Target Under Test: ATP-dependent translocase ABCB1 (Homo sapiens, UniProt P08183)
- Sequence (P08183 whole entry): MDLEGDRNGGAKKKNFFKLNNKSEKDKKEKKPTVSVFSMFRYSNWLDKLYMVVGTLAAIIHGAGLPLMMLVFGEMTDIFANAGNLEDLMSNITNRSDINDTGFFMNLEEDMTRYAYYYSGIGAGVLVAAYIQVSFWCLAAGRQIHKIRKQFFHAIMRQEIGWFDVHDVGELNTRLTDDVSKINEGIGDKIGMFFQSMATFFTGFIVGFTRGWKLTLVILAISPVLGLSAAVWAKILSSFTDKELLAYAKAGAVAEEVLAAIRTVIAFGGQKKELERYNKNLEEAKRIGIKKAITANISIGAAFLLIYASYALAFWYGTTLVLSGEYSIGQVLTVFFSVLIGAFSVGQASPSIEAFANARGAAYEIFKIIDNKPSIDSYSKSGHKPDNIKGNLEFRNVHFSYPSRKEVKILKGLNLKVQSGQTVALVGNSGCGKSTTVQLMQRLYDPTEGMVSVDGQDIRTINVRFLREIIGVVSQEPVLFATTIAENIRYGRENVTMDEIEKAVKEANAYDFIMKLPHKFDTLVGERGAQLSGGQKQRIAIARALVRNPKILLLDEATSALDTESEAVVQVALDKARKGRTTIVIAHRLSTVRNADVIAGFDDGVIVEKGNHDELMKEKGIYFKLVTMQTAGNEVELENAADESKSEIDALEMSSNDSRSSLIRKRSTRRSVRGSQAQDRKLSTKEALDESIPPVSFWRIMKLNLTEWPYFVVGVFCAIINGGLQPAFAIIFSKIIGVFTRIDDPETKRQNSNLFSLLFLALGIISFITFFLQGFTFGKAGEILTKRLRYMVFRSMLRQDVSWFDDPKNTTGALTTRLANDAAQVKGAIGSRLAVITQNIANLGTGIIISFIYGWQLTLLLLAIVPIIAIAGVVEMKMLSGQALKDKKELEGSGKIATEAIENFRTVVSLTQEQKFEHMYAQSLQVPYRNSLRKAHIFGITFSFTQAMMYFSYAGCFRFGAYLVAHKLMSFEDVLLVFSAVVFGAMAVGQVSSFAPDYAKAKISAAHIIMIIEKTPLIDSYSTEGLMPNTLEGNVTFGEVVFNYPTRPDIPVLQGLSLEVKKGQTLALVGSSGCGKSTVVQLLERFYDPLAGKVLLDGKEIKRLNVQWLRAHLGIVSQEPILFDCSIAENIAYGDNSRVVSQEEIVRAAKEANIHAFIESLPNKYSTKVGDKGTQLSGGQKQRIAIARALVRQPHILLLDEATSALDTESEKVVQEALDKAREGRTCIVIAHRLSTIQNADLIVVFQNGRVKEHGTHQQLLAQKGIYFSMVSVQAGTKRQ
- Assay Comment: Reversal of Pgp-mediated DOX resistance in human SW620/AD300 cells assessed as potentiation of DOX-induced cytotoxicity by measuring change in DOX IC50 at 1 uM incubated for 48 hrs by SRB assay relative to DOX alone
- Type: cell-based
- Details: sw620/ad300, 48 h
Task for the reader: assign each of the following compounds its reported fold change (FC).
Form rule: numeric answer, no unit written next to it.

Q) Item under review: COc1cc2c(cc1OC)CN(CCc1ccc(NC(=O)/C=C/c3ccc(Oc4ccc(-c5ccccn5)c(C)c4)nc3)cc1)CC2 . Reported fold change (FC)?
A) 68.14

Q) Item under review: COc1cc2c(cc1OC)CN(CCc1ccc(NC(=O)/C=C/c3cc(-c4ccccn4)cc(C)c3Oc3ccccn3)cc1)CC2 . Reported fold change (FC)?
A) 60.71

Q) Item under review: COc1cc2c(cc1OC)CN(CCc1ccc(NC(=O)/C=C/c3ccc(Oc4ccc(-c5ccccn5)c(O)c4)nc3)cc1)CC2 . Reported fold change (FC)?
A) 40.72

Q) Item under review: COc1cc2c(cc1OC)CN(CCc1ccc(NC(=O)C(O)c3c(-c4ccccc4)n(C)c4ccccc34)cc1)CC2 (configuration not stated) . Reported fold change (FC)?
A) 30.35

Q) Item under review: COc1cc2c(cc1OC)CN(CCc1ccc(NC(=O)/C=C/c3c(-c4ccccc4)n(C)c4ncccc34)cc1)CC2 . Reported fold change (FC)?
A) 40.72

Q) Item under review: COc1cc2c(cc1OC)CN(CCc1ccc(NC(=O)C(c3c(-c4ccccc4)n(C)c4ccccc34)N3CCOCC3)cc1)CC2 (configuration not stated) . Reported fold change (FC)?
A) 60.71

Q) Item under review: COc1cc2c(cc1OC)CN(CCc1ccc(NC(=O)/C=C/c3ccc(Oc4ccc(-c5cccnc5)cc4)nc3)cc1)CC2 . Reported fold change (FC)?
A) 85.62

Q) Item under review: COc1cc2c(cc1OC)CN(CCc1ccc(NC(=O)/C=C/c3ccc(Oc4cc(O)c(-c5ccccn5)c(O)c4)nc3)cc1)CC2 . Reported fold change (FC)?
A) 42.81

Q) Item under review: COc1cc2c(cc1OC)CN(CCc1ccc(NC(=O)/C=C/c3c(-c4ccccc4)oc4ccccc4c3=O)cc1)CC2 . Reported fold change (FC)?
A) 24.55

Q) Item under review: COc1cc2c(cc1OC)CN(CCc1ccc(NC(=O)/C=C/c3ccc(Oc4cccc(-c5ccccn5)c4)nc3)cc1)CC2 . Reported fold change (FC)?
A) 44.52

Q) Item under review: COc1cc2c(cc1OC)CN(CCc1ccc(NC(=O)/C=C/c3ccc(Oc4ccc(-c5ccccn5)c(C#N)c4)nc3)cc1)CC2 . Reported fold change (FC)?
A) 54.74

Q) Item under review: COc1cc2c(cc1OC)CN(CCc1ccc(NC(=O)/C=C/c3ccc(Oc4ccc(-c5ccccn5)cc4C)nc3)cc1)CC2 . Reported fold change (FC)?
A) 45.12

###

- Target Under Test: ATP-dependent translocase ABCB1 (Homo sapiens, UniProt P08183)
- Assay Comment: Reversal of Pgp-mediated DOX resistance in human SW620/AD300 cells assessed as potentiation of DOX-induced cytotoxicity by measuring change in DOX IC50 at 1 uM incubated for 48 hrs by SRB assay relative to DOX alone
- Type: cell-based
- Details: sw620/ad300, 48 h
Quantity Name: fold change (FC)
Form rule: numeric answer, no unit written next to it.

Q) Item under review: COc1cc2c(cc1OC)CN(CCc1ccc(NC(=O)/C=C/c3ccc(Oc4ccc(-c5ccccn5)cc4Br)nc3)cc1)CC2 . Reported fold change (FC)?
A) 47.7

Q) Item under review: COc1ccc2c(C)c(CC(=O)Nc3ccc(CCN4CCc5cc(OC)c(OC)cc5C4)cc3)c(=O)oc2c1 . Reported fold change (FC)?
A) 16.95

Q) Item under review: COc1cc2c(cc1OC)CN(CCc1ccc(NC(=O)/C=C/c3ccc(Oc4ccc(-c5ccccn5)cc4I)nc3)cc1)CC2 . Reported fold change (FC)?
A) 43.93

Q) Item under review: COc1cc2c(cc1OC)CN(CCc1ccc(NC(=O)/C=C/c3cccc(Oc4ccc(-c5ccccn5)cc4)n3)cc1)CC2 . Reported fold change (FC)?
A) 33.73

Q) Item under review: COc1cc2c(cc1OC)CN(CCc1ccc(NC(=O)/C=C/c3ccc(Oc4ccc(-c5ccccn5)c(Cl)c4)nc3)cc1)CC2 . Reported fold change (FC)?
A) 59.63

Q) Item under review: COc1cc2c(cc1OC)CN(CCc1ccc(NC(=O)C3CC3c3ccc(Oc4ccc(-c5ccccn5)cc4)nc3)cc1)CC2 (configuration not stated) . Reported fold change (FC)?
A) 43.93

Q) Item under review: COc1cc2c(cc1OC)CN(CCc1ccc(NC(=O)/C=C/c3ccc(Oc4c(I)cc(-c5ccccn5)cc4I)nc3)cc1)CC2 . Reported fold change (FC)?
A) 28.3

###

- Target Under Test: ATP-dependent translocase ABCB1 (Homo sapiens, UniProt P08183)
- Assay Comment: Reversal of Pgp-mediated DOX resistance in human SW620/AD300 cells assessed as potentiation of DOX-induced cytotoxicity by measuring inhibition of cell proliferation at 1 uM incubated for 48 hrs by SRB assay (reference value: 5.3 +/- 3 %)
- Type: cell-based
Quantity Name: inhibition at 1 µM

Q) Item under review: COc1ccc(-c2nnc(/C=C/c3c(-c4ccccc4)n(C)c4ncccc34)o2)cc1OC . Reported inhibition at 1 µM?
A) 15.1%

Q) Item under review: Cn1c(-c2ccccc2)c(/C=C/C(=O)Nc2nc3ccccc3s2)c2cccnc21 . Reported inhibition at 1 µM?
A) 44.7%

Q) Item under review: COc1cc2c(cc1OC)CN(CCc1ccc(NC(=O)/C=C/c3ccc(Oc4ccc(-c5ccccn5)c(C#N)c4)nc3)cc1)CC2 . Reported inhibition at 1 µM?
A) 58.3%

Q) Item under review: Cn1c(-c2ccccc2)c(/C=C/C(=O)NN2Cc3ccccc3C2=O)c2cccnc21 . Reported inhibition at 1 µM?
A) 18.5%

Q) Item under review: COc1cc2c(cc1OC)CN(S(=O)(=O)/C=C/c1c(-c3ccccc3)n(C)c3ncccc13)CC2 . Reported inhibition at 1 µM?
A) 37.9%

Q) Item under review: COc1cc2c(cc1OC)CN(CCc1ccc(NC(=O)/C=C/c3ccc(Oc4ccc(-c5ccccn5)cc4Br)nc3)cc1)CC2 . Reported inhibition at 1 µM?
A) 60.1%

Q) Item under review: COc1cc2c(cc1OC)CN(CCc1ccc(NC(=O)/C=C/c3c(-c4ccccc4)n(C)c4ncccc34)cc1)CC2 . Reported inhibition at 1 µM?
A) 63%

Q) Item under review: COc1cc2c(cc1OC)CN(CCc1ccc(NC(=O)/C=C/c3ccc(Oc4cccc(-c5ccccn5)c4)nc3)cc1)CC2 . Reported inhibition at 1 µM?
A) 56.5%

###

- Target Under Test: ATP-dependent translocase ABCB1 (Homo sapiens)
- Assay Comment: Reversal of Pgp-mediated DOX resistance in human SW620/AD300 cells assessed as potentiation of DOX-induced cytotoxicity by measuring inhibition of cell proliferation at 1 uM incubated for 48 hrs by SRB assay (reference value: 5.3 +/- 3 %)
- Type: cell-based
Quantity Name: inhibition at 1 µM (%)
Write the number in % without appending the unit.

Q) Item under review: COc1ccc(NC(=O)NC(=O)/C=C/c2c(-c3ccccc3)n(C)c3ncccc23)cc1OC . Reported inhibition at 1 µM?
A) 23.3

Q) Item under review: COc1cc2c(cc1OC)CN(CCc1ccc(NC(=O)C(c3c(-c4ccccc4)n(C)c4ccccc34)N3CCOCC3)cc1)CC2 (configuration not stated) . Reported inhibition at 1 µM?
A) 61.7

Q) Item under review: COc1cc2c(cc1OC)CN(C(=O)/C=C/c1ccc(Oc3ccc(-c4ccccn4)cc3)nc1)CC2 . Reported inhibition at 1 µM?
A) 26.7

Q) Item under review: [2H]c1c([2H])c(-c2ccccn2)c([2H])c([2H])c1Oc1ccc(/C=C/C(=O)Nc2ccc(CCN3CCc4cc(OC)c(OC)cc4C3)cc2)cn1 . Reported inhibition at 1 µM?
A) 49.5

Q) Item under review: COc1cc2c(cc1OC)CN(CCc1ccc(NC(=O)/C=C/c3cc(-c4ccccn4)cc(C)c3Oc3ccccn3)cc1)CC2 . Reported inhibition at 1 µM?
A) 64

Q) Item under review: COc1cc2c(cc1OC)CN(CCc1ccc(NC(=O)/C=C/c3ccc(Oc4ccc(-c5ccccn5)cc4)nc3)cc1)CC2 . Reported inhibition at 1 µM?
A) 41.8

Q) Item under review: COc1ccc(CN2CC(c3c(-c4ccccc4)n(C)c4ncccc34)=CC2=O)cc1OC . Reported inhibition at 1 µM?
A) 20.7
